Target: human recombinant HPK1 (Homo sapiens, UniProt Q92918)
Sequence (Q92918 whole entry): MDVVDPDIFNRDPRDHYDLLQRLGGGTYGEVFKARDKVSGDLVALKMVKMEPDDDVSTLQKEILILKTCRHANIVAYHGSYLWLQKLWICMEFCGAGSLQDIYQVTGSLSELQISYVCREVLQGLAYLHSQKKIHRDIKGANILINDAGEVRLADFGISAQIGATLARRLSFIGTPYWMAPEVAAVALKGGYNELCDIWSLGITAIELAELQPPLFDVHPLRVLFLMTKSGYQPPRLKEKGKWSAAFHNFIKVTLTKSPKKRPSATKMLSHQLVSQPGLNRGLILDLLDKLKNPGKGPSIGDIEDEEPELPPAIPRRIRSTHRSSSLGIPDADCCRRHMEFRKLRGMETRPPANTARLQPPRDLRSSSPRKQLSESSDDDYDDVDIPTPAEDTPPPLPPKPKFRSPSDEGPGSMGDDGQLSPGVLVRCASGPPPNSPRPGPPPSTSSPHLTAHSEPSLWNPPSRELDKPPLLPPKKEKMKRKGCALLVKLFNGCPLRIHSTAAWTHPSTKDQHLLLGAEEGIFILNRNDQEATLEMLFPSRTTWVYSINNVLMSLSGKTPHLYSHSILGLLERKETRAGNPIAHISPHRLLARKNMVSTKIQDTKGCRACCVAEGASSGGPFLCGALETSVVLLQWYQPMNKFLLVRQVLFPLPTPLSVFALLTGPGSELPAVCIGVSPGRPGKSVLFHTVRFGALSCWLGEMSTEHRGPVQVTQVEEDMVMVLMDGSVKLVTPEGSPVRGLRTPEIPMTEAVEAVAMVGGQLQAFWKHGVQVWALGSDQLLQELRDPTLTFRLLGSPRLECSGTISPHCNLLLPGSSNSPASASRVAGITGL
Experiment: Inhibitory activity against human recombinant HPK1 (TR-FRET)
Settings: ULight-p70S6K peptide, ATP at Km, room temperature, 1 hour, 0.32 to 1000 nM compound
Method: Test Example: Evaluation of Inhibitory Activity Against Human Recombinant HPK1 The inhibitory activity against human recombinant HPK1 was evaluated using the Time-Resolved Fluorescence Resonance Energy Transfer (TR-FRET) technology of Perkin-Elmer. […] The signals of TR-FRET at excitation wavelength (320 nm) and emission wavelength (665 nm) were detected using a microplate reader (Envision Multilabel Reader, Perkin-Elmer). […]
Structures can show the parent of a compound that is named as a salt.
Quantity Measured: IC50

>  <Compound>
COc1cccc(F)c1-c1nccc(Nc2cc(N3CCC[C@H](O)C3)c(-c3ccc(OC4CCN(C)CC4)cn3)cn2)n1

>  <Result>
> 100 nM

$$$$
>  <Compound>
CCOc1cccc(F)c1-c1nccc(Nc2cc(N3CCC[C@H](O)C3)c(-c3cnn(C4CCOCC4)c3)cn2)n1

>  <Result>
10 to 50 nM

$$$$
>  <Compound>
N[C@H]1CCCN(c2cc(Nc3ccnc(-c4c(F)cccc4CO)n3)ncc2-c2cnn(C(F)F)c2)C1 [Example 242, hydrochloride]

>  <Result>
≤ 10 nM

$$$$
>  <Compound>
COc1cc(F)cc(F)c1-c1nc(Nc2cc(N3CCC[C@H](O)C3)c(-c3cnn(CC(F)F)c3)cn2)ccc1[N+](=O)[O-]

>  <Result>
≤ 10 nM

$$$$
>  <Compound>
COc1cccc(F)c1-c1nccc(Nc2cc(N3CCCC(NC(C)=O)C3)c(-c3cnn(C4CCOCC4)c3)cn2)n1 (centres unmarked)

>  <Result>
50 to 100 nM

$$$$
>  <Compound>
COc1cccc(F)c1-c1nccc(Nc2cc(N3CCC[C@H](N)C3)c(-c3ccc4c(c3)NC(=O)C(C)O4)cn2)n1 (some centres unmarked) [Example 270, hydrochloride]

>  <Result>
≤ 10 nM

$$$$
>  <Compound>
COc1cccc(F)c1-c1nc(Nc2cc(N3CCC[C@H](O)C3)c(C#CC3CCOCC3)cn2)ccc1C(N)=O

>  <Result>
≤ 10 nM

$$$$
>  <Compound>
COc1cccc(F)c1-c1nc(Nc2cc(N3CCC[C@H](O)C3)c(-c3ccc(C(=O)N4CCC(O)CC4)nc3)cn2)ccc1[N+](=O)[O-]

>  <Result>
10 to 50 nM

$$$$
>  <Compound>
CCN[C@H]1CCN(c2cc(Nc3ccnc(-c4c(F)cccc4OC)n3)ncc2-c2cnn(C3CCOCC3)c2)C1

>  <Result>
≤ 10 nM

$$$$
>  <Compound>
COc1cccc(F)c1-c1nccc(Nc2cc(N3CCC[C@H](N)C3)c(-c3cnn(CCN4CCCC4)c3)cn2)n1 [Example 163, hydrochloride]

>  <Result>
≤ 10 nM

$$$$
>  <Compound>
COc1cccc(F)c1-c1nccc(Nc2cc(N3C[C@@H](N)C[C@H](F)C3)c(-c3cnn(CC(F)(F)F)c3)cn2)n1 [Example 332, hydrochloride]

>  <Result>
≤ 10 nM

$$$$
>  <Compound>
COc1cccc(F)c1-c1nccc(Nc2cc(N3CCC[C@H](N)C3)c(-c3cnn(CC(F)F)c3)cn2)n1 [Example 134, hydrochloride]

>  <Result>
≤ 10 nM

$$$$
>  <Compound>
COc1cc(CO)cc(F)c1-c1nccc(Nc2cc(N3CCC[C@H](N)C3)c(-c3cnn(C(F)F)c3)cn2)n1 [Example 101, hydrochloride]

>  <Result>
≤ 10 nM

$$$$
>  <Compound>
COc1cccc(F)c1-c1nccc(Nc2cc(N3CCC4(CCN(C)C4)CC3)c(-c3ccc(N4CCOCC4)nc3)cn2)n1

>  <Result>
≤ 10 nM

$$$$
>  <Compound>
Cc1cncc(-c2nccc(Nc3cc(N4CCC[C@H](O)C4)c(C(=O)C4CC4)cn3)n2)c1

>  <Result>
10 to 50 nM

$$$$
>  <Compound>
COc1cccc(F)c1-c1nccc(Nc2cc(N3CCC[C@H](O)C3)c(-c3cnn(C)c3)cn2)n1

>  <Result>
≤ 10 nM

$$$$
>  <Compound>
COc1cncc(-c2nccc(Nc3cc(N4CCC[C@H](O)C4)c(C(=O)C4CC4)cn3)n2)c1

>  <Result>
50 to 100 nM

$$$$
